- assayedSystem: JAK2 (Homo sapiens (Human), UniProt O60674)
- Sequence (O60674 849-1124): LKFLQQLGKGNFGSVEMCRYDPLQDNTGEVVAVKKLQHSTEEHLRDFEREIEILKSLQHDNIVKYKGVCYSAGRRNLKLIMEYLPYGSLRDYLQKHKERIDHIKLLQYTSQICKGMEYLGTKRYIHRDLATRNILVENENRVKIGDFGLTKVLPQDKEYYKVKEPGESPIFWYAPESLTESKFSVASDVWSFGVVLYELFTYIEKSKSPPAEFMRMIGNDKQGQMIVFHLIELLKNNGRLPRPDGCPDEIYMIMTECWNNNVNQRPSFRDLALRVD
- protocolText: JAK Family Caliper Enzyme Assay (JAK2)
- Format: biochemical
- measurementContext: recombinant human kinase domain, 1 mM ATP

>  <chemicalSmiles>
C[C@H](O)Cn1cc(Nc2nccc(N3C[C@H]4CC[C@@H](C3)N4C(=O)[C@@H]3CC3(F)F)n2)cn1

>  <IC50 (nM)>
139

$$$$
>  <chemicalSmiles>
O=C([C@@H]1CC1(F)F)N1[C@@H]2CC[C@H]1CN(c1ccnc(Nc3cnn(CCCO)c3)n1)C2

>  <IC50 (nM)>
81

$$$$
>  <chemicalSmiles>
CCCn1cc(Nc2nccc(N3C[C@H]4CC[C@@H](C3)N4C(=O)[C@@H]3CC3(F)F)n2)cn1

>  <IC50 (nM)>
80

$$$$
>  <chemicalSmiles>
C[C@@H](O)Cn1cc(Nc2nccc(N3C[C@H]4CC[C@@H](C3)N4C(=O)[C@@H]3CC3(F)F)n2)cn1

>  <IC50 (nM)>
223

$$$$
